target: CDK2/Cyclin E1 (Homo sapiens, UniProt P24941); assay: CDK2/Cyclin E1 TR-FRET biochemical assay, 0.060 mM ATP; details: 0.15 μM Rb (Ser780)-biotin substrate, 120 min reaction, Table 1
Recorded pIC50, one value per entry.
Just the number, please; pIC50 means minus log10 of the concentration in mol/L.

Fill in: pIC50 of O=S1(=O)NCc2c1ccc(Nc1cc([C@H]3CC[C@@H](Oc4cn[nH]c4)C3)[nH]n1)c2F (relative stereo) is ___
7.28

Likewise for CC(C)n1cc(O[C@@H]2CC[C@H](c3cc(Nc4ccc5c(c4F)CNS5(=O)=O)n[nH]3)C2)cn1 (relative stereo) ?
6.51

Likewise for O=S1(=O)NCc2c1ccc(Nc1cc([C@H]3CC[C@@H](Oc4cnccc4C4CC4)C3)[nH]n1)c2F (relative stereo) ?
7.48

Likewise for O=S1(=O)NCc2c1ccc(Nc1cc([C@H]3CC[C@@H](Oc4nnccc4-c4ccccc4)C3)[nH]n1)c2F (relative stereo) ?
8.07

Likewise for CCOC(=O)c1cn[nH]c1O[C@H]1CC[C@@H](c2cc(Nc3ccc4c(c3F)CNS4(=O)=O)n[nH]2)C1 (relative stereo) ?
7.92

Likewise for CC(C)(C)c1ccnc(O[C@@H]2CC[C@H](c3cc(Nc4ccc5c(c4F)CNS5(=O)=O)n[nH]3)C2)c1 (relative stereo) ?
5.46

Likewise for O=c1ccon1[C@H]1CC[C@@H](c2cc(Nc3ccc4c(c3F)CNS4(=O)=O)n[nH]2)C1 (relative stereo) ?
6.32

###

target: CDK2/Cyclin E1 (Homo sapiens, UniProt P24941); assay: CDK2/Cyclin E1 TR-FRET biochemical assay, 1 mM ATP; settings: 0.15 μM Rb (Ser780)-biotin substrate, 90 min reaction, Table 2
Readout name: pIC50
Just the number, please; pIC50 means minus log10 of the concentration in mol/L.

The examples below pair each entry with its known result.
{"columns": ["Compound", "Readout name", "Value"],
 "data": [
  ["CC(C)(C)c1ccnc(C2CCC(c3cc(Nc4ccc5c(c4F)CS(=O)(=O)N5)n[nH]3)C2)c1 (stereo not shown)", "pIC50", 8.34],
  ["CC(C)c1cnc(C2CCC(c3cc(Nc4ccc5c(c4F)CNS5(=O)=O)n[nH]3)C2)o1 (single isomer, unassigned) [Example 109b]", "pIC50", 6.76],
  ["CC(C)(C)c1cnc([C@@H]2CC[C@H](c3cc(Nc4ccc5c(c4F)CS(=O)(=O)N5)n[nH]3)C2)s1 (relative stereo)", "pIC50", 5.21],
  ["CC(C)c1ccnc(C2CCC(c3cc(Nc4ccc5c(c4F)CNS5(=O)=O)n[nH]3)C2)n1 (stereo not shown)", "pIC50", 8.41],
  ["CC(C)(C)c1cnc(C2CCC(c3cc(Nc4ccc5c(c4)CN=S5(C)=O)n[nH]3)C2)o1 (single isomer, unassigned) [Example 169c]", "pIC50", 7.24],
  ["Cc1cc(C(C)(C)C)cc(C2CCC(c3cc(Nc4ccc5c(c4F)CNS5(=O)=O)n[nH]3)C2)n1 (stereo not shown)", "pIC50", 5.76]
]}

Now for the compound whose pIC50 we want.
Fill in: pIC50 of CC(C)(C)c1cnc(C2CCC(c3cc(Nc4ccc5c(c4F)CN=S5(C)=O)n[nH]3)C2)o1 (stereo not shown) is ___
8.70

###

target: CDK1/Cyclin B1 (Homo sapiens, UniProt P06493); test: CDK1/Cyclin B1 TR-FRET biochemical assay, 1 mM ATP; conditions: 0.15 μM Rb (Ser780)-biotin substrate, 90 min reaction, Table 2
Sequence (P06493 whole entry): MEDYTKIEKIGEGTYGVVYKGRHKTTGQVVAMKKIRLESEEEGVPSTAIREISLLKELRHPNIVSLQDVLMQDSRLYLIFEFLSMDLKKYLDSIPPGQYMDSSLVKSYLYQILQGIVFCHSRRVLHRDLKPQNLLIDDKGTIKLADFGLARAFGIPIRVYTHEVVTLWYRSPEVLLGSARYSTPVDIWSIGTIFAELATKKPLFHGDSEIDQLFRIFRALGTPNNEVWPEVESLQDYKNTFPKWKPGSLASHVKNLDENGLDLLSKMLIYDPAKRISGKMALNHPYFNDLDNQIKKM
Sequence (P14635 whole entry partner): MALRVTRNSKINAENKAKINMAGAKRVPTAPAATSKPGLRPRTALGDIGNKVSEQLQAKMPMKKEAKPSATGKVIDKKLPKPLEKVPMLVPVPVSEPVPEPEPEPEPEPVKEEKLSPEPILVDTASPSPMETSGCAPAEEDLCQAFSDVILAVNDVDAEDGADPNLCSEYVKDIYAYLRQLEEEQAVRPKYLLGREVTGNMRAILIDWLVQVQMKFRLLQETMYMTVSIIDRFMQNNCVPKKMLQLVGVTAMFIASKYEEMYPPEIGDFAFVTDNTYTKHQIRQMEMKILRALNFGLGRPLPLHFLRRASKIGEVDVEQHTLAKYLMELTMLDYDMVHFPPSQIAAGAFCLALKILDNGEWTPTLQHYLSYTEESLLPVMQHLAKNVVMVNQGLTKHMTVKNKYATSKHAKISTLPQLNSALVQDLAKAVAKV
pIC50: −log10 of the molar value.
Recorded pIC50, one value per entry.

The examples below pair each entry with its known result.
{"columns": ["Compound", "pIC50"],
 "data": [
  ["CC(C)(C)c1ccnnc1O[C@H]1CC[C@H](c2cc(Nc3ccc4c(c3F)CNS4(=O)=O)n[nH]2)C1 (relative stereo)", "< 5.00"],
  ["CC(C)(O)c1cc(C2CCC(c3cc(Nc4ccc5c(c4F)CNS5(=O)=O)n[nH]3)C2)n[nH]1 (centres unmarked)", "< 5.00"],
  ["Cc1nc(C2CCC(c3cc(Nc4ccc5c(c4F)CS(=O)(=O)N5)n[nH]3)C2)oc1C(C)(C)C (centres unmarked)", 6.27]
]}

Hello, I am looking for reported pIC50 with CDK1/Cyclin B1 (Homo sapiens, UniProt P06493) for CC(C)c1cnc(C2CCC(c3cc(Nc4ccc5c(c4)CS(=O)(=O)N5C)n[nH]3)C2)o1 (centres unmarked) . Could you help?
5.88

Likewise for CC(C)c1ncc(C2CCC(c3cc(Nc4ccc5c(c4F)CNS5(=O)=O)n[nH]3)C2)o1 (centres unmarked) ?
< 5.00

Likewise for CC(C)(C)c1cnc(C2CCC(c3cc(Nc4ccc5c(c4)CS(=O)(=O)N5)n[nH]3)C2)s1 (centres unmarked) ?
< 5.00

Likewise for COC(=O)c1nc(C2CCC(c3cc(Nc4ccc5c(c4F)CNS5(=O)=O)n[nH]3)C2)oc1C(C)(C)C (centres unmarked) ?
< 5.00

Likewise for CC(C)(C)c1cnc(C2CCC(c3cc(Nc4ccc5c(c4)CN=S5(C)=O)n[nH]3)C2)o1 (single isomer, unassigned) [Example 169a] ?
6.72

Likewise for CC(C)(C)c1ccc(C2CCC(c3cc(Nc4cc5c(cc4F)S(=O)(=O)NC5)n[nH]3)C2)nc1 (centres unmarked) ?
< 5.00

Likewise for CC(C)(C)n1cc(C2CCC(c3cc(Nc4ccc5c(c4F)CNS5(=O)=O)n[nH]3)C2)cn1 (centres unmarked) ?
< 5.00

Likewise for CC(C)(C)c1ccc(C2CCC(c3cc(Nc4ccc5c(c4F)CS(=O)(=O)C5)n[nH]3)C2)o1 (centres unmarked) ?
< 5.00

Likewise for CCOC(=O)c1nc(C2CCC(c3cc(Nc4ccc5c(c4F)CNS5(=O)=O)n[nH]3)C2)oc1C(C)(C)C (centres unmarked) ?
< 5.00

Likewise for CC(C)(C)c1cnc(C2CCC(c3cc(Nc4ccc(S(N)(=O)=O)cc4F)n[nH]3)C2)o1 (single isomer, unassigned) [Example 6c] ?
< 5.00

Likewise for CC(C)(C)c1ccc(C2CCC(c3cc(Nc4ccc5c(c4F)CS(=O)(=O)N5)n[nH]3)C2)nc1 (centres unmarked) ?
< 5.00

###

target: CDK1/Cyclin B1 (Homo sapiens, UniProt P06493); assay: CDK1/Cyclin B1 TR-FRET biochemical assay, 1 mM ATP; conditions: 0.15 μM Rb (Ser780)-biotin substrate, 90 min reaction, Table 2
pIC50: −log10 of the molar value.
Readout name: pIC50

{"columns": ["Molecule", "Tested on", "pIC50"],
 "data": [
  ["CC(C)(C)c1ccnc(C2CCC(c3cc(Nc4ccc5c(c4F)CNS5(=O)=O)[nH]n3)C2)c1 (centres unmarked) [Example 117]", "CDK1/Cyclin B1 (Homo sapiens, UniProt P06493)", 5.17],
  ["CC(C)(C)c1cnc(C2CCC(c3cc(Nc4ccc5c(c4)CN=S5(C)=O)n[nH]3)C2)o1 (single isomer, unassigned) [Example 169c]", "CDK1/Cyclin B1 (Homo sapiens, UniProt P06493)", 5.17],
  ["Cc1cccc(C2CCC(c3cc(Nc4cc5c(cc4F)S(=O)(=O)NC5)n[nH]3)C2)n1 (centres unmarked) [Example 12]", "CDK1/Cyclin B1 (Homo sapiens, UniProt P06493)", "< 5.00"],
  ["CC(C)(C)c1cccc(C2CCC(c3cc(Nc4ccc5c(c4F)CNS5(=O)=O)[nH]n3)C2)n1 (centres unmarked) [Example 118]", "CDK1/Cyclin B1 (Homo sapiens, UniProt P06493)", "< 5.00"],
  ["CC(C)(C)c1ccnnc1O[C@@H]1CC[C@H](c2cc(Nc3ccc4c(c3F)CNS4(=O)=O)n[nH]2)C1 (relative stereo) [Example 37]", "CDK1/Cyclin B1 (Homo sapiens, UniProt P06493)", 7.96],
  ["COc1cccc(C2CCC(c3cc(Nc4ccc5c(c4F)CS(=O)(=O)N5)n[nH]3)C2)n1 (centres unmarked) [Example 160]", "CDK1/Cyclin B1 (Homo sapiens, UniProt P06493)", "< 5.00"]
]}

Fill in: pIC50 of Cc1nc(C2CCC(c3cc(Nc4ccc5c(c4F)CNS5(=O)=O)n[nH]3)C2)oc1C(C)(C)C (centres unmarked) [Example 111] is ___
5.35

Likewise for Cc1cc(C(C)(C)C)cc(C2CCC(c3cc(Nc4ccc5c(c4F)CNS5(=O)=O)n[nH]3)C2)n1 (centres unmarked) [Example 123] ?
< 5.00

Likewise for Cc1cc(C(C)(C)C)cc(C2CCC(c3cc(Nc4ccc(S(N)(=O)=O)cc4F)n[nH]3)C2)n1 (centres unmarked) [Example 2] ?
< 5.00

Likewise for C=C(C)c1cc(C2CCC(c3cc(Nc4ccc5c(c4F)CS(=O)(=O)N5)n[nH]3)C2)n[nH]1 (centres unmarked) [Example 151] ?
< 5.00

Likewise for CC(C)(C)c1cnn([C@@H]2CC[C@H](c3cc(Nc4ccc5c(c4F)CNS5(=O)=O)n[nH]3)C2)c1 (relative stereo) [Example 89] ?
< 5.00

Likewise for COc1cccc(C2CCC(c3cc(Nc4ccc5c(c4F)CNS5(=O)=O)n[nH]3)C2)n1 (centres unmarked) [Example 121] ?
< 5.00

Likewise for CC(C)(C)c1cnc(C2CCC(c3cc(Nc4ccc5c(c4F)CNS5(=O)=O)n[nH]3)C2)[nH]1 (centres unmarked) [Example 103] ?
< 5.00

Likewise for NS(=O)(=O)c1ccc(Nc2cc(C3CCC(c4ncc(C5CC5)o4)C3)[nH]n2)c(F)c1 (centres unmarked) [Example 9] ?
< 5.00

Likewise for CC(C)c1cnc(C2CCC(c3cc(Nc4ccc5c(c4F)CNS5(=O)=O)n[nH]3)C2)o1 (single isomer, unassigned) [Example 109b] ?
< 5.00

Likewise for CC(C)(C)c1coc(C2CCC(c3cc(Nc4ccc5c(c4F)CNS5(=O)=O)n[nH]3)C2)n1 (centres unmarked) [Example 94] ?
< 5.00

Likewise for O=S1(=O)NCc2c1ccc(Nc1cc(C3CCC(c4cnc(C5CC5)o4)C3)[nH]n1)c2F (centres unmarked) [Example 106] ?
< 5.00

Likewise for CC(C)(C)c1cnc(C2CCC(c3cc(Nc4ccc(S(N)(=O)=O)cc4F)n[nH]3)C2)o1 (single isomer, unassigned) [Example 6d] ?
< 5.00

Likewise for CC(C)(C)c1cnnc(C2CCC(c3cc(Nc4ccc5c(c4F)CNS5(=O)=O)n[nH]3)C2)c1 (centres unmarked) [Example 131] ?
< 5.00

Likewise for CC(C)(C)c1ccnc(C2CCC(c3cc(Nc4ccc5c(c4F)CS(=O)(=O)N5)n[nH]3)C2)c1 (centres unmarked) [Example 155] ?
6.16

Likewise for Cc1cc(C(C)(C)C)cc(C2CCC(c3cc(Nc4ccc5c(c4F)CS(=O)(=O)N5)n[nH]3)C2)n1 (centres unmarked) [Example 164] ?
< 5.00

Likewise for CC(C)c1ccnc(C2CCC(c3cc(Nc4ccc(S(N)(=O)=O)cc4F)n[nH]3)C2)n1 (centres unmarked) [Example 5] ?
6.18

Likewise for CC(C)(C)c1cncc(C2CCC(c3cc(Nc4ccc5c(c4F)CS(=O)(=O)N5)n[nH]3)C2)c1 (centres unmarked) [Example 162] ?
< 5.00
